Target: Sodium-dependent serotonin transporter (Homo sapiens, UniProt P31645)
Sequence (P31645 whole entry): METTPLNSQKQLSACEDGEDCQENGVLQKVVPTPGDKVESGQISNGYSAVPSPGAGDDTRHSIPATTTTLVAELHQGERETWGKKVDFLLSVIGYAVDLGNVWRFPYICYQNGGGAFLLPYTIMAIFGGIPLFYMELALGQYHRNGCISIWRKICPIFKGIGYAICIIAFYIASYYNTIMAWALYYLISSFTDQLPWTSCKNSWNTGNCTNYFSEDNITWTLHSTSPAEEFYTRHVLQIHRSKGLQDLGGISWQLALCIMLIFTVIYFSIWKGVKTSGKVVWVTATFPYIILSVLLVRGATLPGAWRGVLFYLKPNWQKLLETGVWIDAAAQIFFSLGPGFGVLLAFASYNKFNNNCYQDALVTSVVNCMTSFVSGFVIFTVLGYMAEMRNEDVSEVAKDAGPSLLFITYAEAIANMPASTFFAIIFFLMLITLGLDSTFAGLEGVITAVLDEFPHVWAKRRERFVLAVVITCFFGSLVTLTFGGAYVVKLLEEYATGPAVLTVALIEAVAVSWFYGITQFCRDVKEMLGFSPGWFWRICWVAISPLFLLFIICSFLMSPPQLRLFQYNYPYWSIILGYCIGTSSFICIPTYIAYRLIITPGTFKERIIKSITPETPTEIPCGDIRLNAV
Assay: Inhibition of serotonin reuptake at human serotonin transporter expressed in HEK293 cells after 5 mins by scintillation counting
testReadout: IC50 (nM)

Recorded results for 5 compounds are shown here.
smilesCode	assayedSystem	IC50, nM
O=C(c1ccc2ccccc2c1)N(C1CCC1)C1CCNCC1	Sodium-dependent serotonin transporter (Homo sapiens, UniProt P31645)	10
CCN(C(=O)c1ccc(Cl)c(Cl)c1C)[C@@H]1CCNC1	Sodium-dependent serotonin transporter (Homo sapiens, UniProt P31645)	10
Cc1c(CN([C@@H]2CCNC2)S(C)(=O)=O)ccc2cc(F)ccc12	Sodium-dependent serotonin transporter (Homo sapiens, UniProt P31645)	4.6
CCCN(C(=O)c1ccc2ccccc2c1)C1CCNCC1	Sodium-dependent serotonin transporter (Homo sapiens, UniProt P31645)	28.3
CS(=O)(=O)N(Cc1ccc2ccccc2c1)[C@@H]1CCNC1	Sodium-dependent serotonin transporter (Homo sapiens, UniProt P31645)	17

a: Cc1c(C(=O)N(C(C)C)[C@@H]2CCNC2)ccc(Cl)c1Cl
b: Cc1c(C(=O)N(C)[C@@H]2CCNC2)ccc(Cl)c1Cl
QUERY: Compare reported IC50 values for a and b . Which is lower? Please reply using the label of the selected record.
RESULT: a
(a: 7 nM, b: 58 nM)

---

Target: Sodium-dependent dopamine transporter (Homo sapiens, UniProt Q01959)
Sequence (Q01959 whole entry): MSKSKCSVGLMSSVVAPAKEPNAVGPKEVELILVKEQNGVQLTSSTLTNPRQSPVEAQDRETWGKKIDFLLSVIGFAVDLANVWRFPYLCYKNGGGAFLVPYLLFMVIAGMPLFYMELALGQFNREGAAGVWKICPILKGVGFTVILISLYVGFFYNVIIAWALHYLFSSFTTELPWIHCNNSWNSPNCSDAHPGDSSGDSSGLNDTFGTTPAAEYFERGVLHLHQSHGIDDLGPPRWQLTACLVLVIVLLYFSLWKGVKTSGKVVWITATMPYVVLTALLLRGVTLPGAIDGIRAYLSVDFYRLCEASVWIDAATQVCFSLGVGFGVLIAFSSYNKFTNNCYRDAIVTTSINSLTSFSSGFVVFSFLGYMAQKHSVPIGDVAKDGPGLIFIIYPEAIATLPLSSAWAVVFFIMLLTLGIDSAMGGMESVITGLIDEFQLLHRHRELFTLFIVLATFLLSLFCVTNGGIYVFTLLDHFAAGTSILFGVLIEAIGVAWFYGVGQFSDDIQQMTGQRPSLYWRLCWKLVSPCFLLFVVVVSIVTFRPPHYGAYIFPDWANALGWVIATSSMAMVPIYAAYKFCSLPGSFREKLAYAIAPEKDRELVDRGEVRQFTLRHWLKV
Test: Inhibition of dopamine reuptake at human dopamine transporter expressed in HEK293 cells after 5 mins by scintillation counting
Reported values of IC50 for individual entries

Recorded results for 3 compounds are shown here.
compound	assayedSystem	IC50
CCCN(C(=O)c1ccc2ccccc2c1)C1CCNCC1	Sodium-dependent dopamine transporter (Homo sapiens, UniProt Q01959)	> 40 µM
Cc1c(C(=O)N(C(C)C)[C@@H]2CCNC2)ccc(Cl)c1Cl	Sodium-dependent dopamine transporter (Homo sapiens, UniProt Q01959)	> 40 µM
CC(C)N(C(=O)c1ccc2ccccc2c1)[C@@H]1CCNC1	Sodium-dependent dopamine transporter (Homo sapiens, UniProt Q01959)	> 14 µM

QUERY: State the recorded IC50 for this entry: c1ccc2cc(COC3CCNCC3)ccc2c1 [LITOXETINE]
RESULT: 6.7 µM

QUERY: State the recorded IC50 for this entry: CCN(C(=O)c1ccc(Cl)c(Cl)c1C)[C@@H]1CCNC1
RESULT: > 40 µM

QUERY: State the recorded IC50 for this entry: CC(=O)N(Cc1ccc2ccccc2c1)[C@@H]1CCNC1
RESULT: > 12 µM

QUERY: State the recorded IC50 for this entry: Cc1c(CN([C@@H]2CCNC2)S(C)(=O)=O)ccc2cc(F)ccc12
RESULT: > 28 µM

QUERY: State the recorded IC50 for this entry: O=C(c1ccc2ccccc2c1)N(C1CCCC1)[C@@H]1CCNC1
RESULT: 7.4 µM

QUERY: State the recorded IC50 for this entry: Cc1c(C(=O)N(CC(C)(C)C)[C@H]2CCNC2)ccc(Cl)c1Cl
RESULT: > 28 µM

QUERY: State the recorded IC50 for this entry: CS(=O)(=O)N(Cc1ccc2ccccc2c1)[C@@H]1CCNC1
RESULT: > 68 µM

QUERY: State the recorded IC50 for this entry: CS(=O)(=O)N(Cc1ccc2ccccc2c1)[C@H]1CCNC1
RESULT: 2.8 µM

---

Biological target: Sodium-dependent noradrenaline transporter (Homo sapiens)
Sequence (P23975 whole entry): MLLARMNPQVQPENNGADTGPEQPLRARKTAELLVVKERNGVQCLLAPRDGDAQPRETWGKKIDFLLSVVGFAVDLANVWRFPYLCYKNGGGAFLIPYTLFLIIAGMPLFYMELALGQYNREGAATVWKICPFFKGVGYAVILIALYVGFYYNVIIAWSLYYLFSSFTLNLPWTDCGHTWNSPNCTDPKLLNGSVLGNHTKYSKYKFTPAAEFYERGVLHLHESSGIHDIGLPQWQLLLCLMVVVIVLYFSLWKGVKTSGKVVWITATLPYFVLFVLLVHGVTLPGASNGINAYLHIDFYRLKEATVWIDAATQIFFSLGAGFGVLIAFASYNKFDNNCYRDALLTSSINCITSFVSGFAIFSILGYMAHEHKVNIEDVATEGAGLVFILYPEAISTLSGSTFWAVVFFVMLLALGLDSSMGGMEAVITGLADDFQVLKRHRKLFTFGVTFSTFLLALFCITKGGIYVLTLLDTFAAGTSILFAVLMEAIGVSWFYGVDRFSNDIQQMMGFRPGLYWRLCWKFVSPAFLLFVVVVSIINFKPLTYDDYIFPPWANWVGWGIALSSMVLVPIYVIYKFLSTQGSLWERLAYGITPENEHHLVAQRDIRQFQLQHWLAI
Assay: Inhibition of noradrenaline reuptake at human noradrenaline transporter expressed in HEK293 cells after 15 mins by scintillation counting
pIC50: −log10 of the molar value.
testReadout: pIC50

1: CS(=O)(=O)N(Cc1ccc2ccccc2c1)C1CCNCC1
2: CS(=O)(=O)N(Cc1ccc2ccccc2c1)[C@@H]1CCNC1
QUERY: Compare reported pIC50 values for 1 and 2 . Which is lower? Please reply using the label of the selected record.
RESULT: 2
(2: 5.15, 1: 5.60)

A: Cc1c(CN([C@@H]2CCNC2)S(C)(=O)=O)ccc2cc(F)ccc12
B: CC(C)N(C(=O)c1ccc2ccccc2c1)[C@@H]1CCNC1
C: CCC(=O)N(Cc1ccc2ccccc2c1)[C@@H]1CCNC1
QUERY: With regard to pIC50, arrange the entries in ascending order, please. Please reply with the labels ordered as requested. Many thanks.
RESULT: B, A, C
(B: 5.12, A: 6.13, C: 6.65)

a: Cc1c(C(=O)N(CC(C)(C)C)[C@H]2CCNC2)ccc(Cl)c1Cl
b: O=C(c1ccc2ccccc2c1)N(C1CCC1)[C@@H]1CCNC1
c: CC(C)CN(C(=O)c1ccc2ccccc2c1)[C@@H]1CCNC1
QUERY: With regard to pIC50, arrange the entries in ascending order, please. Please reply with the labels ordered as requested. Many thanks.
RESULT: b, c, a
(b: 5.22, c: 5.92, a: 6.45)

I: CS(=O)(=O)N(Cc1ccc2ccccc2c1)[C@H]1CCNC1
II: Cc1c(C(=O)N(C(C)C)[C@@H]2CCNC2)ccc(Cl)c1Cl
QUERY: Which has the higher pIC50, I or II ? Please reply using the label of the selected record.
RESULT: I
(I: 6.43, II: 5.24)
